SYSTEM TESTED: phosphatase ABI1 via the co-regulator RCAR11/PYR1 (Arabidopsis thaliana, UniProt O49686+P49597)
Sequence (O49686 1-191): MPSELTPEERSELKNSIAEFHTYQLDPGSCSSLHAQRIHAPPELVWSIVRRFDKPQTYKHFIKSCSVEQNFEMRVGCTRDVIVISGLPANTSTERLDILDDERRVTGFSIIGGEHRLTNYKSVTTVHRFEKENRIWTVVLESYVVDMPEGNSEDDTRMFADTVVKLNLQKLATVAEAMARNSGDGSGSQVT
Sequence (P49597 1-434): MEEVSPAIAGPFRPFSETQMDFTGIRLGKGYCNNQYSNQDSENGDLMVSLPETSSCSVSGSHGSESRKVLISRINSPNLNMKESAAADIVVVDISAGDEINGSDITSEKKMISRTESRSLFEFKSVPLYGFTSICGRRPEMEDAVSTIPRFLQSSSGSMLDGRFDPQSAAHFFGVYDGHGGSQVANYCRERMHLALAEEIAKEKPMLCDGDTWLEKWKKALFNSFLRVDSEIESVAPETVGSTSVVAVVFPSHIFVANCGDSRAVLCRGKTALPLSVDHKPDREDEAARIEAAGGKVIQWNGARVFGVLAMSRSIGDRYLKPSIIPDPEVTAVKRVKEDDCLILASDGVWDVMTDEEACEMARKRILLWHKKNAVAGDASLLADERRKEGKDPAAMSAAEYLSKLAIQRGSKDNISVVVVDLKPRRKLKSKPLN
TEST DESCRIPTION: In vitro assay: inhibition of the phosphatase ABI1 via the co-regulator RCAR11/PYR1, MUP dephosphorylation, fluorescence
Format: biochemical
TEST CONTEXT: concentration of 5 mM of the substance in a solution of DMSO and water; MUP dephosphorylation, fluorescence 460 nm
MEASUREMENT TYPE: ABI1 inhibition

Data request: Supply recorded ABI1 inhibition for CCOC(=O)C=C(C#CC(O)(c1ccc(C)cc1)C1(C#N)CC1)C(F)(F)F (racemic) here.
Data returned: +++ (90%>inhibition≥70%)

Data request: Please indicate ABI1 inhibition recorded for CCOC(=O)/C=C(/C)C#CC(C)(O)C1(C#N)CC1 (centres unmarked)
Data returned: +++ (90%>inhibition≥70%)

Data request: Tell me ABI1 inhibition reported for CCOC(=O)/C=C(/C)C#CC(O)(C(C)C)C1(C#N)CC1 (centres unmarked)
Data returned: +++ (90%>inhibition≥70%)

Data request: Note down ABI1 inhibition recorded for COC(=O)C=C(C#CC(O)(c1cccc(F)c1)C1(C#N)CC1)C(F)(F)F (racemic)
Data returned: +++ (90%>inhibition≥70%)

Data request: Please give the documented ABI1 inhibition of COC(=O)/C=C(\C#CC(O)(C1CCC1)C1(C#N)CC1)C(F)(F)F (centres unmarked)
Data returned: ++++ (inhibition≥90%)

New cases:
Data request: Provide only the value of recorded ABI1 inhibition for CCOC(=O)C=C(C#CC(O)(C(CC)CC)C1(C#N)CC1)C(F)(F)F (racemic)
Data returned: +++ (90%>inhibition≥70%)

Data request: Answer with the recorded ABI1 inhibition of CCC(C=CC(O)(c1ccccc1)C1(C#N)CC1)=CC(=O)O (racemic) only.
Data returned: ++++ (inhibition≥90%)

Data request: Return value of ABI1 inhibition for input CCC(C#CC(O)(c1cccc(F)c1)C1(C#N)CC1)=CC(=O)OC (racemic) , no commentary.
Data returned: ++++ (inhibition≥90%)

Data request: Give the reported ABI1 inhibition for this compound. CCOC(=O)C=C(C#CC(O)(c1cccc(F)c1)C1(C#N)CC1)C(F)(F)F (racemic)
Data returned: +++ (90%>inhibition≥70%)

Data request: Answer with reported ABI1 inhibition of CC/C(C#CC(O)(c1ccc(F)cc1)C1(C#N)CC1)=C/C(=O)OCCOC (centres unmarked)
Data returned: ++++ (inhibition≥90%)

Data request: Provide only the value of recorded ABI1 inhibition for CCOC(=O)C=C(C=CC(O)(C(C)C)C1(C#N)CC1)C1CCCC1 (racemic)
Data returned: +++ (90%>inhibition≥70%)

Data request: Using the record for CC/C(C#CC(O)(c1ccccc1)C1(C#N)CC1)=C/C(=O)OC (centres unmarked) , state its measured ABI1 inhibition.
Data returned: ++++ (inhibition≥90%)

Data request: // fetch ABI1 inhibition given entry COC(=O)/C=C(\C#CC(O)(C1CCCCC1)C1(C#N)CC1)C(F)(F)F (centres unmarked)
Data returned: +++ (90%>inhibition≥70%)
